Residual turnover overview
tested on: HPPD polypeptides; assay: coupled HPPD activity assay: turnover and residual turnover in crude extracts; assay type: biochemical, Pseudomonas fluorescens; details: presence of 100 μM Cmpd. 1; high substrate concentration; changes in absorbance (OD) at 320 nm
endpoint: Residual turnover

55 (protein, mutant HPPD polypeptide) MADLYENPMGLMGFEFIEFASPTPGTLEPIFEIMGFTKVATHRSKNVHLYRQGEINLILNNEPNSIASYFAAEHGPSVCGMAFRVKDSQKAYNRALELGAQPIHIDTGPMELNLPAIKGIGGAPLYLIDRFGEGSSIYDIDFVYLEGVERNPVGAGLKVIDHLTHNVYRGRMVYWANFYEKLFNFREARYFDIKGEYTGLTSKAMSAPDGMIRIPLNEESSKGAGQIEEFLMQFNGEGIQHVAFLTDDLVKTWDALKKIGMRFMTAPADNYYEMLEGRLPDHGEPVDQLQARGILLDGSSVEGDKRLLLQIFSETLMGPVFFEFIQRKGDDGFGPHSFKVLFESKERDQVRRGVLTAD; 0.095
24 (protein, mutant HPPD polypeptide) MADLYENPMGLMGFEFIEFASPTPGTLEPIFEIMGFTKVATHRSKNVHLYRQGEINLILNNEPNSIASYFAAEHGPSVCGMAFRVKDSQKAYNRALELGAQPIHIDTGPMELNLPAIKGIGGAPLYLIDRFGEGSSIYDIDFVYLEGVERNPVGAGLKVIDHLTHNVYRGRMVYWANFYEKLFNFREARYFDIKGEYTGLTSKAMSAPDGMIRIPLNEESSKGAGQIEEFLMQFNGEGIQHVAFLTDDLVKTWDALKKIGMRFMTAPADTYYEMLEGRLPDHGEPVDQLQARGILLDGSSVEGDKRLLLQIFSETLMGPVFFEFIQRKGDDGFGPHSFKVLFESIERDQVRRGVLTAD; 0.105
30 (protein, mutant HPPD polypeptide) MADLYENPMGLMGFEFIEFASPTPGTLEPIFEIMGFTKVATHRSKNVHLYRQGEINLILNNEPNSIASYFAAEHGPSVCGMAFRVKDSQKAYNRALELGAQPIHIDTGPMELNLPAIKGIGGAPLYLIDRFGEGSSIYDIDFVYLEGVERNPVGAGLKVIDHLTHNVYRGRMVYWANFYEKLFNFREARYFDIKGEYTGLTSKAMSAPDGMIRIPLNEESSKGAGQIEEFLMQFNGEGIQHVAFLTDDLVKTWDALKKIGMRFMTAPADTYYEMLEGRLPDHGEPVDQLQARGILLDGSSVEGDKRLLLQIFSETLMGPVFFEFIQRKGDDGFGPHSFKVLFESVERDQVRRGVLTAD; 0.149
22 (protein, mutant HPPD polypeptide) MADLYENPMGLMGFEFIEFASPTPGTLEPIFEIMGFTKVATHRSKNVHLYRQGEINLILNNEPNSIASYFAAEHGPSVCGMAFRVKDSQKAYNRALELGAQPIHIDTGPMELNLPAIKGIGGAPLYLIDRFGEGSSIYDIDFVYLEGVERNPVGAGLKVIDHLTHNVYRGRMVYWANFYEKLFNFREARYFDIKGEYTGLTSKAMSAPDGMIRIPLNEESSKGAGQIEEFLMQFNGEGIQHVAFLTDDLVKTWDALKKIGMRFMTAPGDTYYEMLEGRLPDHGEPVDQLQARGILLDGSSVEGDKRLLLQIFSETLMGPVFFEFIQRKGDDGFGPDSFKVLFEQVERDQVRRGVLTAD; 0.062
